Inhibition 2 overview
Target: cloned human or rodent CNS receptors, channels, and transporters (PDSP panel) (Homo sapiens)
Construct: expressed in transfected cells
Sequence (P34969 whole entry): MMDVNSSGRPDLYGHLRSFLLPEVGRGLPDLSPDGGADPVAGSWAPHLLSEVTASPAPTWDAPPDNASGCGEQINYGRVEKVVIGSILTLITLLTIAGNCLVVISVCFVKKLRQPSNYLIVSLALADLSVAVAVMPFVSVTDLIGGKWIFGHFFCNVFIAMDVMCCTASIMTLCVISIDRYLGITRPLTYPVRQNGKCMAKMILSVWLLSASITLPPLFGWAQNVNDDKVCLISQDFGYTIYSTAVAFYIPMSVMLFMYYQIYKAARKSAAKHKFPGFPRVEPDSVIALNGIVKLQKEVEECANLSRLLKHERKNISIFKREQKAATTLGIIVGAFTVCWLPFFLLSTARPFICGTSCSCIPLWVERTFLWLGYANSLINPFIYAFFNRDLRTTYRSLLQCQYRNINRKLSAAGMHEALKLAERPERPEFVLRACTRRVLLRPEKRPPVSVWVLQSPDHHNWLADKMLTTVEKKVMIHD
Assay: PDSP GPCR panel primary binding assays at 10 μM
Details: Receptor 5-HT7A; primary assay, 10 μM

c1cn2cc(-c3ccc4cn[nH]c4c3)nc(Nc3ccc(N4CCOCC4)cc3)c2n1 [UNC10302678A, Entospletinib (GS-9973)]	11.23%

(Q) Give the value of Inhibition 2 reported for the following: CCCCNc1ncc2c(-c3ccc(CN4CCN(C)CC4)cc3)cn([C@H]3CC[C@H](O)CC3)c2n1 [UNC2025C, UNC2025]
(A) -19.4%

(Q) Give the value of Inhibition 2 reported for the following: O=c1oc2ccccc2cc1-c1cn2cc(Cc3ccc(F)cc3)sc2n1 [UNC10302680A, iMDK]
(A) 2.87%

(Q) Give the value of Inhibition 2 reported for the following: Cl.NC(=O)c1cnc(N[C@@H]2CCCC[C@@H]2N)nc1Nc1cccc(-n2nccn2)c1 [UNC10302682A, P505-15 (PRT06207 HCl)]
(A) 20.22%
